Biological target: T1, human CD22 (d1 to d7 domain according to NP_001762.2) (human, UniProt P20273 20-687)
T1 construct: domain: d1 to d7 domain; also called human CD22-gly; Siglec-2
Assay: SPR; mAb supernatant captured on protein A chip, human CD22 injected
Catalogue of Kd values
Record the value in nM, omitting the unit from your answer.

| Binder | Unit of measurement | Kd |
| --- | --- | --- |
| TNT78 (antibody, human IgG1, kappa, V domains shown) VH: QVQLLESGGGVVQPGGSLRLSCAASGFAFSIYDMNWVRQAPGKGLEWVSAISSGGGTTYYADSVKGRFTISRDNAKNSLYLQMNSLRAEDTAVYYCARHSGYGTHWGVLFAYWGRGTLVTVSS VL: DIQMTQSPSSLSASVGDRVTITCRASQSISSYLNWYQQKPGKAPKLLIYAASSLQSGVPSRFSGSGSGTDFTLTISSLQPEDFATYYCQQGNTLPWTFGQGTKLEIKR | nM | 24.9 |
| TNT85 (antibody, human IgG1, kappa, V domains shown) VH: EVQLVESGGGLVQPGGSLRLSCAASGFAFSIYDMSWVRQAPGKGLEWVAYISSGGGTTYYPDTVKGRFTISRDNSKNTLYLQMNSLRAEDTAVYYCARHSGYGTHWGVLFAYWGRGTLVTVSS VL: DIVMTQTPLSLSVTPGQPASISCRASQDIHGYLNWYQQKPGQSPQLLIYYTSILHSGVPDRFSGSGSGTDFTLKISRVEAEDVGVYFCQQGNTLPWTFGGGTKLEIKR | nM | 1.25 |
| TNT77 (antibody, human IgG1, kappa, V domains shown) VH: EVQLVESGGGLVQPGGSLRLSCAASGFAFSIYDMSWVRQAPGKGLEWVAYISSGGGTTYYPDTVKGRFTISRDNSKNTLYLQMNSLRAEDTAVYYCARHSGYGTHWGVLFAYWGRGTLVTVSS VL: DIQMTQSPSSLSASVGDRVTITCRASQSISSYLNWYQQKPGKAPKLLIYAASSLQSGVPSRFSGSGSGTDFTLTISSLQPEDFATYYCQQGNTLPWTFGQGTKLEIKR | nM | 10.2 |

Lab note: next binder to report on.
Consider TNT75 (antibody, human IgG1, kappa, V domains shown) VH: EVQLVESGGGLVQPGGSLRLSCAASGFTFSSYEMNWVRQAPGKGLEWVSYISSSGSTIYYADSVKGRFTISRDNAKNSLYLQMNSLRAEDTAVYYCARHSGYGTHWGVLFAYWGRGTLVTVSS VL: DIQMTQSPSSVSASVGDRVTITCRASQDIHGYLAWYQQKPGKAPKLLIYYTSSLQSGVPSRFSGSGSGTDFTLTISSLQPEDFATYYCQQGNTLPWTFGQGTKLEIKR . Its measured Kd is 30

Origin of measurements: patent US20220380768A1
